Attribution: PubChem BioAssay (NCI)

tested on: HCC-2998 colon; test: NCI-60 one-dose screen, 48 h; details: 10 µM
Compounds without any hit were thinned out: in the full panel of roughly 83,000, 20% have a hit. Activity calls are given as the source filed them. Rule for the calls: active = growth percent below 10; inactive = the rest.
Assign a class; possible classes are 1 for active, -1 for inactive

As a guide, the following entries are already answered.
O=C(Nc1ccc(Oc2ncnc3scc(Nc4n[nH]c(=S)s4)c23)cc1)C1(C(=O)Nc2cccc(C(F)(F)F)c2)CC1 :: -1
O=C(CN1CCN(c2ncnc3c2cnn3-c2ccccc2)CC1)Nc1ccc(Br)cc1 :: -1
O=C1S/C(=C\c2ccc([N+](=O)[O-])cc2)C(=O)N1CCN1CCCCC1 :: -1
COc1cc(C2CC(c3ccc(Oc4ccc(Cl)cc4)cc3)=NN2c2nc(-c3ccc(Cl)cc3)c(C#N)c(N3CCOCC3)n2)cc(OC)c1OC (centres undefined) :: -1
COc1cc2oc(-c3cccc(C(=O)Nc4ccc(Cl)cc4)c3)cc(=O)c2c(OCCNC(=O)[C@@H](N)CO)c1OC :: -1
COc1ccc(C2c3sc4ccc(C)cc4c3Oc3nc(N)nc(N)c32)cc1 (centres undefined) :: -1
O=C(Nc1ccc(OCc2ccc(Cl)cc2)cc1)Nc1ccc(Cl)c(C(F)(F)F)c1 :: 1
COc1cccc(O)c1/C=C1\SCc2cc3c(OC)cccc3[o+]c21 :: -1

Now, please, on to the next compound.
**Q:** Which result was noted for this compound in the test: "COc1cccc(C(=O)CSc2nc(-c3ccc(OCc4ccccc4)c(OC)c3)c(C#N)c(=O)[nH]2)c1"
**A:** -1

###

tested on: MDA-MB-468 breast; assay: NCI-60 one-dose screen, 48 h; details: 10 µM unless noted
The panel holds about 83,000 compounds, 20% with a hit somewhere; the sample as a whole holds those more often. The source made the active and inactive calls. Rule for the calls: active = growth percent below 10; inactive = the rest.
Assign a class; possible classes are true (1) = active, false (0) = inactive

As a guide, the following entries are already answered.
O=C1c2cccnc2C(=O)c2c1c(C(=O)NCCCN1CCCCC1)c1ccccn21 :: true (1)
O=C(/C=C/c1ccc(Cl)cc1)c1ccc(Cl)cc1 :: false (0)
CN(C)CCNc1nc2ccccc2c2c(=O)c3ccccc3sc12 :: true (1)
COC1CC(O)C2=C(CC3C(/C(C)=C\CC=C(C)C)CCC3(C)O2)C1=O (stereo unspecified) :: false (0)
COc1ccc(-c2ccc(NC(=O)Nc3cccc(C(F)(F)F)c3)c(C)n2)cc1 :: false (0)

**Q:** Which result was noted for this compound in the test: "Cc1nc(-c2ccccc2)cc2c(O)c(C(=O)N/N=C/Cc3ccccc3)[nH]c(=O)c12"
**A:** false (0)

**Q:** Which result was noted for this compound in the test: "Cc1cc(C)c2c(NC(=O)Nc3ccc(Cl)c(Cl)c3)n[nH]c2n1"
**A:** false (0)

**Q:** Which result was noted for this compound in the test: "OCCCCCCNc1ncnc2cc(Cl)ccc12"
**A:** false (0)

**Q:** Which result was noted for this compound in the test: "CCCCCCCCCCCCNc1ncnc2[nH]ncc12"
**A:** false (0)

**Q:** Which result was noted for this compound in the test: "CN1C/C=C\CCOc2cccc(c2)-c2ccnc(n2)Nc2cccc(c2)C1"
**A:** true (1)

**Q:** Which result was noted for this compound in the test: "N#Cc1c(N)nc(Cl)c(C#N)c1C(=O)c1ccccc1"
**A:** true (1)
